Before we begin, note that these IC50 values for UniProt P22607 originate from several publications.

Take a look at these entries with their results.
CNC(=O)c1cc(-c2cnc3cc(-c4ccc(N5CCCC5)nc4)c(O[C@H]4CCOC4)nn23)c(F)c(C(F)F)c1    < 10 nM
N#CCC1(n2cc(-c3cnn4c(-c5cccc(NC(=O)NCC(F)(F)F)c5)cnc4c3)cn2)CN(C(=O)CC2CCCO2)C1 (stereo not shown)    < 10 nM

Enquiry: Lab note: need IC50 for CNC(=O)c1cc(CCc2cnc(Nc3cnn(C4CC4)c3)nc2)c(F)c(OC)c1 on UniProt P22607, anyone have it?
Return: 14 nM

Enquiry: Lab note: need IC50 for COc1cc(OC)c(F)c(-c2cc3[nH]nc(-c4ccc5c(c4)CCNC5=O)c3cn2)c1F on UniProt P22607, anyone have it?
Return: < 100 nM

Enquiry: Lab note: need IC50 for CNS(=O)(=O)c1cccc(-c2cnc3cc(-c4cnn(C)c4)c(OC)nn23)c1 on UniProt P22607, anyone have it?
Return: < 10 nM

Enquiry: Lab note: need IC50 for CNC(=O)c1cncc(-c2cnn3cc(-c4ccc(N5CCOCC5)nc4)c(O[C@H]4CCOC4)nc23)c1 on UniProt P22607, anyone have it?
Return: < 10 nM

Enquiry: Lab note: need IC50 for C[C@@H]1O[C@H](c2ccncc2NC(=O)c2nc(-c3ccccc3)cnc2N)C[C@H](N)[C@@]1(C)O on UniProt P22607, anyone have it?
Return: 3400 nM

---

Before we begin, note that these IC50 values for Fibroblast growth factor receptor 3 (Homo sapiens) originate from several publications.
Answer format: numeric, nM implied, no suffix.

Take a look at these entries with their results.
CONC(=O)c1cc(CCc2cnc(Nc3ccccc3)nc2)cc(OC)c1    20
CCC[C@H]1O[C@@H](c2ccncc2NC(=O)c2nc(-c3ccccc3)cnc2N)C[C@@H](O)[C@@H]1O    210
CNC(=O)c1cc(CCc2cnc(Nc3cnn(C4CCCC4)c3)nc2)c(F)c(OC)c1    9
CNC(=O)c1cc(CCc2cnc(Nc3cccnc3OC)nc2)c(F)c(OC)c1    243
COc1cc(C)cc2cc(-c3c(COCCN4CCOCC4)cn4ncnc(N)c34)sc12    30

Enquiry: Lab note: need IC50 for COc1cc(C)cc2cc(-c3c(CN4CCCCC4)cn4ncnc(N)c34)sc12 on Fibroblast growth factor receptor 3 (Homo sapiens), anyone have it?
Return: 0.7

Enquiry: Lab note: need IC50 for CNC(=O)c1cc(CCc2cnc(Nc3ccc4ncnn4c3)nc2)c(F)c(OC)c1 on Fibroblast growth factor receptor 3 (Homo sapiens), anyone have it?
Return: 33

---

Before we begin, note that these IC50 values for UniProtKB P22607 originate from several publications.

Take a look at these entries with their results.
CN1CCC(CNC(=O)c2ccc(-c3ccc4c(c3)ncn4-c3cccc(NC(=O)NCC(F)(F)F)c3)cc2)CC1    < 10 nM
CNc1cc2c(cn1)CN(c1c(F)c(OC)cc(OC)c1F)C(=O)C21CC1    < 100 nM

Enquiry: Consider the compound shown here: CNC(=O)c1cc(F)c(F)c(-c2cnc3cc(-c4cnn(C)c4)c(O[C@H]4CCNC4)nn23)c1 What is its recorded IC50?
Return: 10 to 100 nM

Enquiry: Consider the compound shown here: CCOCc1cn2ncnc(N)c2c1-c1cc2cc(C)cc(OC)c2s1 What is its recorded IC50?
Return: 14.2 nM

Enquiry: Consider the compound shown here: CNC(=O)C(C)c1ccc(-c2cnn3c(-c4cccc(NC(=O)NCC(F)(F)F)c4)cnc3c2)cc1 (centres unmarked) What is its recorded IC50?
Return: < 10 nM

Enquiry: Consider the compound shown here: CN1CCN(c2ccc(-c3cnc4ccn5c(C(N)=O)c(-c6c(Cl)cccc6Cl)nc5c4c3)cc2)CC1 What is its recorded IC50?
Return: < 0.1 nM

Enquiry: Consider the compound shown here: CNC(=O)c1cc(C)c(F)c(-c2cnn3cc(-c4cnn(C)c4)c(O[C@H]4CCOC4)nc23)c1 What is its recorded IC50?
Return: < 10 nM

Enquiry: Consider the compound shown here: COc1cc(OC)c(F)c(-c2cc3[nH]nc(-c4cc5c(cc4F)C(=O)N(C(C)C)C5)c3cn2)c1F What is its recorded IC50?
Return: < 100 nM

---

Before we begin, note that these IC50 values for Fibroblast growth factor receptor 3 (Homo sapiens, UniProt P22607) originate from several publications.

COc1cc(C)cc2cc(-c3c(CNC4CCOC4)cn4ncnc(N)c34)sc12 (stereo not shown)    2.3 nM

Enquiry: Consider the compound shown here: CNC(=O)c1cncc(-c2cnc3cc(-c4cnn(C)c4)c(OCC(F)F)nn23)c1 What is its recorded IC50?
Return: 10 to 100 nM

Enquiry: Consider the compound shown here: COc1cc(OC)c(F)c(-c2cc3[nH]nc(-c4ccc5c(c4)CCC(C(=O)N(C)C)O5)c3cn2)c1F (stereo not shown) What is its recorded IC50?
Return: < 100 nM

Enquiry: Consider the compound shown here: C=CC(=O)Nc1cc(N2CCN(CCC(F)(F)F)C(C)C2)ccc1C(=O)Nc1cc(CCc2cc(OC)cc(OC)c2)n[nH]1 (stereo not shown) What is its recorded IC50?
Return: 3 nM

---

Before we begin, note that these IC50 values for Fibroblast growth factor receptor 3 (Homo sapiens) originate from several publications.

Take a look at these entries with their results.
CC1C(=O)N(C)CCN1c1nc2c(-c3cnn(C)c3)n[nH]c2cc1Cc1ccccc1 (stereo not shown)    30 to 200 nM
CC(O)Cn1cc(-c2cnc3ccn4c(C(N)=O)c(-c5c(Cl)cccc5Cl)nc4c3c2)cn1 (stereo not shown)    < 0.1 nM
C=CC(=O)NCc1cc2c(cn1)CN(c1c(F)c(OC)cc(OC)c1F)C(=O)N2CC1CCC1    > 200 nM

Enquiry: Lab note: need IC50 for CNC(=O)Cn1cc(-c2n[nH]c3cc(-c4c(Cl)c(OC)cc(OC)c4Cl)ncc23)cn1 on Fibroblast growth factor receptor 3 (Homo sapiens), anyone have it?
Return: < 100 nM

Enquiry: Lab note: need IC50 for COc1cc(OC)c(F)c(-c2cc3[nH]nc(-c4ccc5c(c4)CN(C(C)C)C5=O)c3cn2)c1F on Fibroblast growth factor receptor 3 (Homo sapiens), anyone have it?
Return: < 100 nM

Enquiry: Lab note: need IC50 for CNC(=O)c1cc(COc2cnc(Nc3ccc(N4C[C@@H](C)N[C@@H](C)C4)c(F)c3)nc2)c(Cl)c(OC)c1 on Fibroblast growth factor receptor 3 (Homo sapiens), anyone have it?
Return: 10 nM

Enquiry: Lab note: need IC50 for NC(=O)c1c(-c2c(Cl)cccc2Cl)nc2c3cc(-c4cnn(Cc5ccncn5)c4)cnc3ccn12 on Fibroblast growth factor receptor 3 (Homo sapiens), anyone have it?
Return: < 0.1 nM

Enquiry: Lab note: need IC50 for CNC(=O)c1cc(-c2cnn3cc(-c4cccnc4)c(O[C@H]4CCOC4)nc23)c(F)c(C(F)F)c1 on Fibroblast growth factor receptor 3 (Homo sapiens), anyone have it?
Return: < 10 nM

Enquiry: Lab note: need IC50 for COc1cc(C)cc2cc(-c3c(CN4CNC(=O)C4)cn4ncnc(N)c34)sc12 on Fibroblast growth factor receptor 3 (Homo sapiens), anyone have it?
Return: 3.1 nM

Enquiry: Lab note: need IC50 for COc1cc(OC)c(F)c(-c2ncc3c(-c4ccc5c(c4)CN(CCN(C)C)C5=O)n[nH]c3n2)c1F on Fibroblast growth factor receptor 3 (Homo sapiens), anyone have it?
Return: < 100 nM

Enquiry: Lab note: need IC50 for CC(C)(C#N)n1cc(-c2cnc3ccn4c(CO)c(-c5c(Cl)cccc5Cl)nc4c3c2)cn1 on Fibroblast growth factor receptor 3 (Homo sapiens), anyone have it?
Return: 1 to 5 nM

Enquiry: Lab note: need IC50 for Cn1cc(-c2n[nH]c3ccc(N4CCCn5nccc54)nc23)cn1 on Fibroblast growth factor receptor 3 (Homo sapiens), anyone have it?
Return: ≥ 200 nM

Enquiry: Lab note: need IC50 for C=CC(=O)N1CC(C#N)(C(=O)N2CCC(n3cc(-c4cnc5ccc(Nc6cc(OC)cc(OC)c6)cc5n4)cn3)CC2)C1 on Fibroblast growth factor receptor 3 (Homo sapiens), anyone have it?
Return: 13 nM

Enquiry: Lab note: need IC50 for CCN1CCN(c2ccc(Nc3ncc(CCc4cc(C(=O)NOC)cc(OC)c4Cl)cn3)cc2)CC1 on Fibroblast growth factor receptor 3 (Homo sapiens), anyone have it?
Return: 2 nM

Enquiry: Lab note: need IC50 for CNC(=O)c1cc(CCc2cnc(Nc3cnn(CC(F)(F)F)c3)nc2)c(F)c(OC)c1 on Fibroblast growth factor receptor 3 (Homo sapiens), anyone have it?
Return: 31 nM

Enquiry: Lab note: need IC50 for COc1cc(OC)c(Cl)c(-c2cc3[nH]nc(-c4ccc(C(O)C(=O)N(C)C)c(F)c4)c3cn2)c1Cl (stereo not shown) on Fibroblast growth factor receptor 3 (Homo sapiens), anyone have it?
Return: < 100 nM

Enquiry: Lab note: need IC50 for COc1cc(OC)c(F)c(-c2cc3[nH]nc(-c4ccc5c(c4)CN(C4CC4)C5=O)c3cn2)c1F on Fibroblast growth factor receptor 3 (Homo sapiens), anyone have it?
Return: < 100 nM

Enquiry: Lab note: need IC50 for CC(C)[C@@H]1C[C@H](N)C[C@H](c2ccncc2NC(=O)c2nc(-c3ccccc3)cnc2N)O1 on Fibroblast growth factor receptor 3 (Homo sapiens), anyone have it?
Return: 1600 nM

Enquiry: Lab note: need IC50 for CC1C(=O)N(C)CCN1c1nc2c(-c3cnn(C)c3)n[nH]c2cc1Cl (stereo not shown) on Fibroblast growth factor receptor 3 (Homo sapiens), anyone have it?
Return: 10 to 30 nM

Enquiry: Lab note: need IC50 for C=CC(=O)N1C[C@@H](CC)[C@H](Nc2ncc3cc(-c4c(Cl)c(OC)cc(OC)c4Cl)ccc3n2)C1 on Fibroblast growth factor receptor 3 (Homo sapiens), anyone have it?
Return: 75 nM
